assay: Solubility of P027 in different solvents at room temperature (visual, successive solvent additions); assay type: physicochemical; details: organic solvent or mixture, thermodynamic from solid; Dimethylformamide, room temperature
experimental readout: solubility

May I ask what solubility has been recorded for "Cc1cc(OCCN2CCOCC2)nn1-c1ccc2ccccc2c1.Cl" ? > 50 mg/mL

###

test: Solubility of P027 in different solvents at room temperature (visual, successive solvent additions); assay type: physicochemical; details: organic solvent or mixture, thermodynamic from solid; n-Hexane, room temperature
experimental readout: solubility

Could you share which solubility value was measured for "Cc1cc(OCCN2CCOCC2)nn1-c1ccc2ccccc2c1.Cl" ? < 1200 µg/mL

###

experiment: Solubility of P027 in different solvents at room temperature (visual, successive solvent additions); assay type: physicochemical; conditions: organic solvent or mixture, thermodynamic from solid; Diethoxymethane, room temperature
experimental readout: solubility

I'd like to know its solubility. The compound in question is Cc1cc(OCCN2CCOCC2)nn1-c1ccc2ccccc2c1.Cl [P027] < 1200 µg/mL

These entries and their values trace back to patent US9051275B2.
